target: BTK protein (Homo sapiens, UniProt Q06187); construct: endogenous in cells; host or cells: TMD-8 cells; experiment: Measurement of BTK protein degradation ability in TMD-8 cells (Western blotting); assay type: cell-based; settings: compound 1 nM, harvested after 24 hours
Sequence (Q06187 whole entry): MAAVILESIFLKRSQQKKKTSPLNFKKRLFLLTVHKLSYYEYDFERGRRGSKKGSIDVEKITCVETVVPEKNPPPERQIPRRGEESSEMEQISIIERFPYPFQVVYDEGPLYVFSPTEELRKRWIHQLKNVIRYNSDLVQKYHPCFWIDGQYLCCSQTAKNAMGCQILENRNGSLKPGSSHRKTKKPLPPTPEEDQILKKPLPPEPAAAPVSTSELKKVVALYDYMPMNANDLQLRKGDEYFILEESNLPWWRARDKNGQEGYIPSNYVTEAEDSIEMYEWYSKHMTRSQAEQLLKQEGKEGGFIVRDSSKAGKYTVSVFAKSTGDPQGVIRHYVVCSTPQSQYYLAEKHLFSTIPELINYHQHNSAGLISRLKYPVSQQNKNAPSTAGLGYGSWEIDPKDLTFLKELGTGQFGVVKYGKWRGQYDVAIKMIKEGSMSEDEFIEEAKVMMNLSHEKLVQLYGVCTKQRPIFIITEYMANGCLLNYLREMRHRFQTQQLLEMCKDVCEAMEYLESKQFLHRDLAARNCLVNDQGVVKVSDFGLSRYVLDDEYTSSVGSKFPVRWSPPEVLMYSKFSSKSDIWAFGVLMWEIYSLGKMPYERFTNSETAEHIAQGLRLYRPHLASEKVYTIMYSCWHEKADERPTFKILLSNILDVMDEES
outcomeMeasure: BTK degradation (%) 1 nM

compound="Cc1cc(-c2ccnc(Nc3ccc(N4CCC(CN5CCN(c6ccc(NC7CCC(=O)NC7=O)cc6)CC5)CC4)cc3)n2)ccc1CNC(=O)N1CC(OC(C)C)C1 (stereo not drawn)" measurement=43.0
compound="Cc1cc(-c2ccnc(Nc3ccc(N4CCN(CC5CCN(c6ccc(NC7CCC(=O)NC7=O)cn6)CC5)CC4)cc3)n2)ccc1CNC(=O)c1cnn(C(C)(C)C)c1 (stereo not drawn)" measurement=58.0
compound="Cc1cc(-c2ccnc(Nc3ccc(N4CCC(CN5CCN(c6ccc(OC7CCC(=O)NC7=O)cn6)CC5)CC4)cc3)n2)ccc1CNC(=O)N1CC(OC(C)C)C1 (stereo not drawn)" measurement=14.7

---

Biological target: BTK protein (Homo sapiens)
Construct: endogenous in cells; host or cells: TMD-8 cells
Test: Measurement of BTK protein degradation ability in TMD-8 cells (Western blotting)
Format: cell-based
Conditions: compound 100 nM, harvested after 24 hours
Experimental: TMD-8, RAMOS, or 293T BTK MUT (C481S) cells were treated with the synthesized compounds, and then the amount of BTK protein present in the cells was measured using Western blotting detection. The protocol for the experiment conducted using TMD-8 cells was as follows: [Culture] […] [Western blotting detection method] […] The samples were washed 5 times with 0.5% TBST for 5 minutes each and detected with LI-COR's Odyssey. […]
outcomeMeasure: BTK degradation (%) 100 nM

compound=Cc1cc(-c2ccnc(Nc3ccc(N4CCC(CN5CCC(c6cccc(N7CCC(=O)NC7=O)c6)CC5)CC4)cc3)n2)ccc1CNC(=O)c1cn(C(C)(C)C)nn1 outcomemeasure="BTK degradation (%) 100 nM" measurement=90.0%
compound="Cc1cc(-c2ccnc(Nc3ccc(N4CCC(CN5CCC(c6ccc(NC7CCC(=O)NC7=O)cc6)CC5)CC4)nc3)n2)ccc1CNC(=O)c1cn(C(C)(C)C)nn1 (centres unmarked)" outcomemeasure="BTK degradation (%) 100 nM" measurement=99.0%
compound="Cc1cc(-c2ccnc(Nc3ccc(N4CCC(CN5CCC(c6ccc(NC7CCC(=O)NC7=O)cn6)CC5)CC4)cc3)n2)ccc1CNC(=O)c1cnn(C(C)(C)C)c1 (centres unmarked)" outcomemeasure="BTK degradation (%) 100 nM" measurement=99.5%
compound="Cc1cc(-c2ccnc(Nc3ccc(C4CCN(CC5CCN(C(=O)c6cccc(NC7CCC(=O)NC7=O)c6)CC5)CC4)cc3)n2)ccc1CNC(=O)N1CC(OC(C)C)C1 (centres unmarked)" outcomemeasure="BTK degradation (%) 100 nM" measurement=98.5%
compound="Cc1cc(-c2ccnc(Nc3ccc(N4CCN(CC5CCN(C(=O)c6cccc(NC7CCC(=O)NC7=O)c6)CC5)CC4)cc3)n2)ccc1CNC(=O)c1cnn(C(C)(C)C)c1 (centres unmarked)" outcomemeasure="BTK degradation (%) 100 nM" measurement=98.0%
compound="Cc1cc(-c2ccnc(Nc3ccc(N4CCN(CC5CN(c6ccc7c(c6)C(=O)N(C6CCC(=O)NC6=O)C7=O)C5)CC4)nc3)n2)ccc1CNC(=O)N1CC(OC(C)C)C1 (centres unmarked)" outcomemeasure="BTK degradation (%) 100 nM" measurement=98.5%
compound="Cc1cc(-c2ccnc(Nc3ccc(C4CCN(CC5CN(c6ccc7c(c6)C(=O)N(C6CCC(=O)NC6=O)C7=O)C5)CC4)nc3)n2)ccc1CNC(=O)N1CC(OC(C)C)C1 (centres unmarked)" outcomemeasure="BTK degradation (%) 100 nM" measurement=98.5%
compound="Cc1cc(-c2ccnc(Nc3ccc(N4CCC(CN5CCC(c6ccc(OC7CCC(=O)NC7=O)cn6)CC5)CC4)cc3)n2)ccc1CNC(=O)N1CC(OC(C)C)C1 (centres unmarked)" outcomemeasure="BTK degradation (%) 100 nM" measurement=97.7%
compound="Cc1c(NC(=O)c2cnn(C(C)(C)C)c2)cc(F)cc1-c1ccnc(Nc2ccc(N3CCN(CC4CCN(c5ccc6c(c5)C(=O)N(C5CCC(=O)NC5=O)C6=O)CC4)CC3)cc2)n1 (centres unmarked)" outcomemeasure="BTK degradation (%) 100 nM" measurement=20%
compound="Cc1cc(-c2ccnc(Nc3ccc4c(c3)CN(CC3CCN(c5ccc6c(c5)C(=O)N(C5CCC(=O)NC5=O)C6=O)CC3)CC4)n2)ccc1CNC(=O)c1cnn(C(C)(C)C)c1 (centres unmarked)" outcomemeasure="BTK degradation (%) 100 nM" measurement=94%
compound=COc1ccc(C(=O)N2CCC(CN3CCN(c4ccc(Nc5nccc(-c6cc(F)cc(NC(=O)N7CC(OC(C)C)C7)c6C)n5)cc4)CC3)CC2)cc1N1CCC(=O)NC1=O outcomemeasure="BTK degradation (%) 100 nM" measurement=37.5%

---

Molecular target: BTK protein (Homo sapiens, UniProt Q06187)
Construct: endogenous in cells; host or cells: TMD-8 cells
Assay: Measurement of BTK protein degradation ability in TMD-8 cells (Western blotting)
Type: cell-based
Conditions: compound 100 nM, harvested after 24 hours
Method: TMD-8, RAMOS, or 293T BTK MUT (C481S) cells were treated with the synthesized compounds, and then the amount of BTK protein present in the cells was measured using Western blotting detection. The protocol for the experiment conducted using TMD-8 cells was as follows: [Culture] […] [Western blotting detection method] […] The samples were washed 5 times with 0.5% TBST for 5 minutes each and detected with LI-COR's Odyssey. […]
# reported BTK degradation (%) 100 nM; entries follow
outcomeMeasure: BTK degradation (%) 100 nM

molecule=Cc1cc(-c2ccnc(Nc3ccc(N4CCN(CC5CCN(c6cccc(N7CCC(=O)NC7=O)c6)CC5)CC4)nc3)n2)ccc1CNC(=O)c1cnn(C(C)(C)C)c1 targetorsystem="BTK protein (Homo sapiens, UniProt Q06187)" readoutunit=% measurement=99.5
molecule=Cc1cc(-c2ccnc(Nc3ccc(CN4CCN(CC5CCN(c6ccc(N7CCC(=O)NC7=O)cc6)CC5)CC4)cc3)n2)ccc1CNC(=O)N1CC(OC(C)C)C1 targetorsystem="BTK protein (Homo sapiens, UniProt Q06187)" readoutunit=% measurement=99.0
molecule=Cc1cc(-c2ccnc(Nc3ccc(CN4CCN(CC5CCN(c6ccc(N7CCC(=O)NC7=O)cc6)CC5)CC4)cc3)n2)ccc1CNC(=O)c1cn(C(C)(C)C)nn1 targetorsystem="BTK protein (Homo sapiens, UniProt Q06187)" readoutunit=% measurement=98.0
molecule=Cc1cc(-c2ccnc(Nc3ccc(N4CCC(CN5CCC(c6ccc(N7CCC(=O)NC7=O)cc6)CC5)CC4)cc3)n2)ccc1CNC(=O)c1cn(C(C)(C)C)nn1 targetorsystem="BTK protein (Homo sapiens, UniProt Q06187)" readoutunit=% measurement=95.0
molecule="Cc1cc(-c2ccnc(Nc3ccc(N4CCN(CC5CCN(c6ccc(OC7CCC(=O)NC7=O)cc6)CC5)CC4)cc3)n2)ccc1CNC(=O)c1cnn(C(C)C)c1 (stereo not drawn)" targetorsystem="BTK protein (Homo sapiens, UniProt Q06187)" readoutunit=% measurement=99.0
molecule="Cc1cc(-c2ccnc(Nc3ccc(N4CCC(CN5CCN(c6ccc(NC7CCC(=O)NC7=O)cn6)CC5)CC4)cc3)n2)ccc1CNC(=O)N1CC(OC(C)C)C1 (stereo not drawn)" targetorsystem="BTK protein (Homo sapiens, UniProt Q06187)" readoutunit=% measurement=99.3

---

Documented BTK degradation (%) 100 nM across a set of compounds
target: BTK protein (Homo sapiens); construct: endogenous in cells; host or cells: TMD-8 cells; experiment: Measurement of BTK protein degradation ability in TMD-8 cells (Western blotting); format: cell-based; conditions: compound 100 nM, harvested after 24 hours
outcomeMeasure: BTK degradation (%) 100 nM

compound="Cc1cc(-c2ccnc(Nc3ccc(N4CCC(CN5CCN(c6ccc(NC7CCC(=O)NC7=O)cn6)CC5)CC4)cc3)n2)ccc1CNC(=O)c1cnn(C(C)C)c1 (stereo not shown)" outcomemeasure="BTK degradation (%) 100 nM" readoutunit=% measurement=100.0
compound="Cc1cc(-c2ccnc(Nc3ccc(C4CCN(CC5CN(C(=O)c6cccc(NC7CCC(=O)NC7=O)c6)C5)CC4)cc3)n2)ccc1CNC(=O)N1CC(OC(C)C)C1 (stereo not shown)" outcomemeasure="BTK degradation (%) 100 nM" readoutunit=% measurement=98.0
compound="Cc1cc(-c2ccnc(Nc3ccc(N4CCN(CC5CCN(C(=O)c6cccc(NC7CCC(=O)NC7=O)c6)CC5)CC4)cc3)n2)ccc1CNC(=O)N1CC(OC(C)C)C1 (stereo not shown)" outcomemeasure="BTK degradation (%) 100 nM" readoutunit=% measurement=98.5
compound=Cc1cc(-c2ccnc(Nc3ccc(CN4CCN(CC5CCN(c6cccc(N7CCC(=O)NC7=O)c6)CC5)CC4)cc3)n2)ccc1CNC(=O)N1CC(OC(C)C)C1 outcomemeasure="BTK degradation (%) 100 nM" readoutunit=% measurement=98.0
compound="Cc1cc(-c2ccnc(Nc3ccc(N4CCC(CN5CCN(c6ccc(NC7CCC(=O)NC7=O)cn6)CC5)CC4)cc3)n2)ccc1CNC(=O)c1cnn(C(C)(C)C)c1 (stereo not shown)" outcomemeasure="BTK degradation (%) 100 nM" readoutunit=% measurement=100.0
compound="Cc1cc(-c2ccnc(Nc3ccc(N4CCC(CN5CCN(C(=O)c6cccc(NC7CCC(=O)NC7=O)c6)CC5)CC4)cc3)n2)ccc1CNC(=O)N1CC(OC(C)C)C1 (stereo not shown)" outcomemeasure="BTK degradation (%) 100 nM" readoutunit=% measurement=99.5
compound=Cc1cc(-c2ccnc(Nc3ccc(N4CCN(CC5CCN(c6ccc(N7CCC(=O)NC7=O)cc6)CC5)CC4)cc3)n2)ccc1CNC(=O)c1cn(C(C)(C)C)nn1 outcomemeasure="BTK degradation (%) 100 nM" readoutunit=% measurement=99.5
compound="Cc1cc(-c2ccnc(Nc3ccc(N4CCC(CN5CCN(c6ccc(NC7CCC(=O)NC7=O)cc6)CC5)CC4)cc3)n2)ccc1CNC(=O)N1CC(OC(C)C)C1 (stereo not shown)" outcomemeasure="BTK degradation (%) 100 nM" readoutunit=% measurement=100.0
compound="Cc1cc(-c2ccnc(Nc3ccc(N4CCC(CN5CCN(c6ccc(NC7CCC(=O)NC7=O)cn6)CC5)CC4)cc3)n2)ccc1CNC(=O)c1cn(C(C)(C)C)nn1 (stereo not shown)" outcomemeasure="BTK degradation (%) 100 nM" readoutunit=% measurement=100.0
compound=Cc1cc(-c2ccnc(Nc3ccc(CN4CCC(CN5CCC(c6cccc(N7CCC(=O)NC7=O)c6)CC5)CC4)cc3)n2)ccc1CNC(=O)c1cn(C(C)(C)C)nn1 outcomemeasure="BTK degradation (%) 100 nM" readoutunit=% measurement=77.0
compound="Cc1cc(-c2ccnc(Nc3ccc(N4CCC(CN5CCC(c6cccc(NC7CCC(=O)NC7=O)c6)CC5)CC4)cc3)n2)ccc1CNC(=O)N1CC(OC(C)C)C1 (stereo not shown)" outcomemeasure="BTK degradation (%) 100 nM" readoutunit=% measurement=98.5
compound="Cc1cc(-c2ccnc(Nc3ccc(N4CCN(CC5CN(C(=O)c6cccc(NC7CCC(=O)NC7=O)c6)C5)CC4)cc3)n2)ccc1CNC(=O)N1CC(OC(C)C)C1 (stereo not shown)" outcomemeasure="BTK degradation (%) 100 nM" readoutunit=% measurement=98.5
compound=Cc1cc(-c2ccnc(Nc3ccc(N4CCN(CC5CCN(c6cccc(N7CCC(=O)NC7=O)c6)CC5)CC4)nc3)n2)ccc1CNC(=O)c1cnn(C(C)C)c1 outcomemeasure="BTK degradation (%) 100 nM" readoutunit=% measurement=99.5
compound="Cc1cc(-c2ccnc(Nc3cnn(C4CCN(CC5CCN(c6ccc7c(c6)C(=O)N(C6CCC(=O)NC6=O)C7=O)CC5)CC4)c3)n2)ccc1CNC(=O)c1cn(C(C)(C)C)nn1 (stereo not shown)" outcomemeasure="BTK degradation (%) 100 nM" readoutunit=% measurement=98.5
compound="Cc1cc(-c2ccnc(Nc3ccc(C4CCN(CC5CN(c6ccc7c(c6)C(=O)N(C6CCC(=O)NC6=O)C7=O)C5)CC4)cc3)n2)ccc1CNC(=O)c1cn(C(C)(C)C)nn1 (stereo not shown)" outcomemeasure="BTK degradation (%) 100 nM" readoutunit=% measurement=98.0
compound="Cc1cc(-c2ccnc(Nc3ccc(N4CCN(CC5CCN(c6ccc(NC7CCC(=O)NC7=O)cc6)CC5)CC4)cc3)n2)ccc1CNC(=O)N1CC(OC(C)C)C1 (stereo not shown)" outcomemeasure="BTK degradation (%) 100 nM" readoutunit=% measurement=99.7
compound="Cc1cc(-c2ccnc(Nc3ccc(N4CCC(CN5CCC(c6ccc(NC7CCC(=O)NC7=O)cc6)CC5)CC4)cc3)n2)ccc1CNC(=O)c1cnn(C(C)(C)C)c1 (stereo not shown)" outcomemeasure="BTK degradation (%) 100 nM" readoutunit=% measurement=99.0
compound="Cc1cc(-c2ccnc(Nc3cnn(C4CCN(CC5CN(c6ccc7c(c6)C(=O)N(C6CCC(=O)NC6=O)C7=O)C5)CC4)c3)n2)ccc1CNC(=O)c1cn(C(C)(C)C)nn1 (stereo not shown)" outcomemeasure="BTK degradation (%) 100 nM" readoutunit=% measurement=98
compound="Cc1cc(-c2ccnc(Nc3ccc(N4CCN(CC5CCN(C(=O)c6cccc(NC7CCC(=O)NC7=O)c6)CC5)CC4)cc3)n2)ccc1CNC(=O)c1cnn(C(C)C)c1 (stereo not shown)" outcomemeasure="BTK degradation (%) 100 nM" readoutunit=% measurement=98.5
compound="Cc1cc(-c2ccnc(Nc3ccc(C4CCN(CC5CN(c6ccc7c(c6)C(=O)N(C6CCC(=O)NC6=O)C7=O)C5)CC4)cc3)n2)ccc1CNC(=O)c1cnn(C(C)C)c1 (stereo not shown)" outcomemeasure="BTK degradation (%) 100 nM" readoutunit=% measurement=99.0
compound="Cc1cc(-c2ccnc(Nc3ccc(N4CCC(CN5CCC(c6ccc(NC7CCC(=O)NC7=O)cc6)CC5)CC4)cc3)n2)cnc1CNC(=O)c1cn(C(C)(C)C)nn1 (stereo not shown)" outcomemeasure="BTK degradation (%) 100 nM" readoutunit=% measurement=97.0
compound="Cc1cc(-c2ccnc(Nc3ccc(N4CCN(CC5CCN(C(=O)c6cccc(OC7CCC(=O)NC7=O)c6)CC5)CC4)cc3)n2)ccc1CNC(=O)N1CC(OC(C)C)C1 (stereo not shown)" outcomemeasure="BTK degradation (%) 100 nM" readoutunit=% measurement=94.0
